Listed next: entries and their corresponding hALPP Ka.
target: ALPP (Homo sapiens, UniProt P05187); experiment: BLI binding kinetics, human ALPP immobilised on AR2G sensors (KD / KD apparent); conditions: VHH domains
Sequence (P05187 with tags, fused parts or gaps): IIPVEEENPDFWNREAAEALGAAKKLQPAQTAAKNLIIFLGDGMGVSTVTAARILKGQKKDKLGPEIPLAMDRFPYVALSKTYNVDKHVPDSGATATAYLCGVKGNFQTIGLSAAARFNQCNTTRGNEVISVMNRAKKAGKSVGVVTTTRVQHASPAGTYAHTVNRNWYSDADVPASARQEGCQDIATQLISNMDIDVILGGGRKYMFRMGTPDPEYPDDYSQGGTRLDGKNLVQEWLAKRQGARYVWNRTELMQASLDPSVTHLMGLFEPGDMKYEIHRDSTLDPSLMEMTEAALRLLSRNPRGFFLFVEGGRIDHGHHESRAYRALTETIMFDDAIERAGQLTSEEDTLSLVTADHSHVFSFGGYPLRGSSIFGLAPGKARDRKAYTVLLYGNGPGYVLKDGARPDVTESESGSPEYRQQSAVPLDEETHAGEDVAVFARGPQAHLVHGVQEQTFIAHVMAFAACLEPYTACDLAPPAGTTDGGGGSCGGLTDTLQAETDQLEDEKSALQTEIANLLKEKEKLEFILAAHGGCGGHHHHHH
// note: answer is a bare numeric in M⁻¹ s⁻¹

Which hALPP Ka is reported for this molecule? B09: ALPP targeting VHH domain, SEQ ID NO: 21 (protein) VHH: QVQLVESGGGSVQAGGSLRLSCAASGPSLSHYAMGWFRQAPGKEREFVAGISWGGGRTSYTDSVKGRFTISRDNAKNTVYLQMNNLKPEDTGVYYCAGRYGRGRNVEYEYDYWGQGTQVTVSS 237000

# input for lookup
Which hALPP Ka value belongs to C06: ALPP targeting VHH domain, SEQ ID NO: 24 (protein) VHH: QVQLVESGGGLVQPGGSLRVSCAASGPSLSNYAMGWFRQAPGKEREFVAGISWGGGRTSYTDSVKGRFTISRDNAKNTVYLQMNNLKPEDTGVYYCAGRYGRGRNVEYEYDYWGQGTQVTVSS ? 368000
